Molecular target: Cannabinoid receptor 2 (Homo sapiens)
Sequence (P34972 whole entry): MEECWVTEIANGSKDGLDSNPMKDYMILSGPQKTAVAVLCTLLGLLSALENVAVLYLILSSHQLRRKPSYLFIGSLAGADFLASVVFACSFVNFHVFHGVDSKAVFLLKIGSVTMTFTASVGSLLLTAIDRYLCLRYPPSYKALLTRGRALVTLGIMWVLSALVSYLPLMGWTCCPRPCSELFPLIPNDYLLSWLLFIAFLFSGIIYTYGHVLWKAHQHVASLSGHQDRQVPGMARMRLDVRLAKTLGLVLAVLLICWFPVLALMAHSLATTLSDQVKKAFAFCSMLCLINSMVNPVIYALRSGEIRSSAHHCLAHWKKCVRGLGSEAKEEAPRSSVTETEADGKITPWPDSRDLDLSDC
Experiment: Displacement of [3H]CP55,940 from human recombinant CB2 receptor expressed in HEK293 cells at 10 uM
Type: cell-based
Reported inhibition is given for each of the following compounds.
Just the number please, in %, no unit attached.

// worked examples, inhibition included
CCCCC/C=C\C/C=C\C/C=C\C/C=C\CCCC(=O)NCC(=O)O [ARACHIDONOYL GLYCINE]
36
CCCCC/C=C\C/C=C\C/C=C\C/C=C\CCCC(=O)O[C@H](CO)COP(=O)(O)O[C@@H]1[C@@H](O)[C@H](O)[C@@H](O)[C@H](O)[C@@H]1O
0

Incoming: Specify measured inhibition for CCOC(=O)COc1cccc(/C=C2\N=C3SCCCCN3C2=O)c1 .
Outgoing: 39

Incoming: Specify measured inhibition for O=C1/C(=C/c2ccc(Br)cc2)N=C2SCCCN12 .
Outgoing: 8
